# experimental target: human TRPA1 channel (Homo sapiens (Human), UniProt O75762)
# Sequence (O75762 whole entry): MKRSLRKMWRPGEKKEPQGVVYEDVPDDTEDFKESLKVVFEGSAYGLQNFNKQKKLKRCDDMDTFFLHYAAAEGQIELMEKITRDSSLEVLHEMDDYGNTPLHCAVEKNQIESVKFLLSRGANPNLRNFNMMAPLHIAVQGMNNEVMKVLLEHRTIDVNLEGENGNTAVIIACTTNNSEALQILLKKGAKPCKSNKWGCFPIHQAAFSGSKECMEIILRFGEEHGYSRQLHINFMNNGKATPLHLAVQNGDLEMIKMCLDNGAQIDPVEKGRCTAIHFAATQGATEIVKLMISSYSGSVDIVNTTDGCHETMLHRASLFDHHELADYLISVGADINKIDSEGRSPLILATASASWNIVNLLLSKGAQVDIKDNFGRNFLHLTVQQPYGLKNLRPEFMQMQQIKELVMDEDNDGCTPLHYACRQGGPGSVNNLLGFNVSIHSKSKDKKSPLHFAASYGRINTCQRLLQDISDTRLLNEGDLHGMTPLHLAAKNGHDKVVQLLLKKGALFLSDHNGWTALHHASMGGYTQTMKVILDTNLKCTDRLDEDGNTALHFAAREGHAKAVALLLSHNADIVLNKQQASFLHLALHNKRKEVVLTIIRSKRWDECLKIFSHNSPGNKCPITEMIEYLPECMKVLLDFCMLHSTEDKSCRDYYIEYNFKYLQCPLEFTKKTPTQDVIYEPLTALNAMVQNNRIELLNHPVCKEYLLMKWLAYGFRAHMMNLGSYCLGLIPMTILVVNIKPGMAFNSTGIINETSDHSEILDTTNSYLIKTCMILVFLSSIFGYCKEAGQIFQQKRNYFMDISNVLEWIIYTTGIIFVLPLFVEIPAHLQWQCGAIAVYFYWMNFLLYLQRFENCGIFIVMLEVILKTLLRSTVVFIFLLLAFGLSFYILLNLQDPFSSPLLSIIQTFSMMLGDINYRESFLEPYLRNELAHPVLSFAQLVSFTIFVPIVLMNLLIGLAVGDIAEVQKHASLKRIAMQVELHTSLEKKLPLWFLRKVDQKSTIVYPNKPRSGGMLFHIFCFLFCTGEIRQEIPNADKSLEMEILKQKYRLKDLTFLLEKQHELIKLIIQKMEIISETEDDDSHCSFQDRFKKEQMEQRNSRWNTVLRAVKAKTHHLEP
# assay overview: hTRPA1 CHO Ca2+ FLIPR Tetra assay: block of cinnamaldehyde induced calcium influx
# Type: cell-based
# setup conditions: read-out: hTRPA1 IC50 90 min; CHO cells expressing TRPA1; 90 minutes incubation with compound before cinnamaldehyde (about EC80); Hill coefficient fixed to 1.5
measured quantity: IC50 (nM)

compound	recorded measurement
Cn1cnc2nc(N)n(Cc3nc([C@@H]4CO[C@@H](c5ccc(Cl)cc5)C4)no3)c2c1=O [Example 123]	17
COc1nccc2c(=O)n(Cc3nc([C@@H]4CO[C@@H](c5ccc(Cl)cc5)C4)no3)cnc12 [Example 52]	140
Cc1ncn2ncn(Cc3nc([C@@H]4CO[C@@H](c5ccc(F)cc5)C4)no3)c(=O)c12 [Example 75]	25
Cc1ccnc2nc(N)n(Cc3nc([C@@H]4CO[C@@H](c5ccc(F)cc5)C4)no3)c(=O)c12 [Example 133]	1.4
Cn1c(N)nc2ncn(Cc3nc([C@@H]4CO[C@@H](c5ccc(Cl)cc5)C4)no3)c(=O)c21 [Example 26]	9.7
O=c1c2cccnc2cnn1Cc1nc([C@@H]2CO[C@@H](c3ccc(F)cc3)C2)no1 [Example 11]	13
Cn1cnc2ncn(Cc3nc([C@@H]4CO[C@@H](c5ccc(Br)cc5)C4)no3)c(=O)c21 [Example 29]	1.8

----------
# experimental target: human TRPA1 channel (Homo sapiens (Human), UniProt O75762)
# assay overview: hTRPA1 CHO Ca2+ FLIPR Tetra assay: block of cinnamaldehyde induced calcium influx
# Format: cell-based
# setup conditions: read-out: hTRPA1 IC50 90 min; CHO cells expressing TRPA1; 90 minutes incubation with compound before cinnamaldehyde (about EC80); Hill coefficient fixed to 1.5
Mark 1 only for IC50 values smaller than 5 nM; exact matches and larger values are -1.

compound string	class
Nc1nc2ncccc2c(=O)n1Cc1nc([C@@H]2CO[C@@H](c3cccc(F)c3)C2)no1	-1
Nc1nc2ncccc2c(=O)n1Cc1nc([C@@H]2CO[C@@H](c3ccc(F)cc3)C2)no1	1
Cn1cnc2nc(N)n(Cc3nc([C@@H]4CO[C@@H](c5ccc(Cl)cc5)C4)no3)c(=O)c21	1
Cc1cnn2ncn(Cc3nc([C@@H]4CO[C@@H](c5ccc6cn[nH]c6c5)C4)no3)c(=O)c12	-1
Nc1ccc2c(=O)n(Cc3nc([C@@H]4CO[C@@H](c5ccc(F)cc5)C4)no3)cnc2n1	-1
Cn1cnc2nc(N)n(Cc3nc([C@@H]4CO[C@@H](c5ccc(C(F)(F)F)cc5)C4)no3)c(=O)c21	-1
Nc1nn2c(C(F)(F)F)ncc2c(=O)n1Cc1nc([C@@H]2CO[C@@H](c3ccc(Cl)cc3)C2)no1	1
Cc1cnn2nc(N)n(Cc3nc([C@@H]4CO[C@@H](c5cccc(F)c5)C4)no3)c(=O)c12	1
Cn1cnc2nc(N)n(Cc3nc([C@@H]4CO[C@@H](c5ccc(F)cc5)C4)no3)c(=O)c21	-1
Cn1c(=O)c2c(ncn2Cc2nc([C@@H]3CO[C@@H](c4ccc(Cl)cc4)C3)no2)n(C)c1=O	-1
Cc1cnn2ncn(Cc3nc([C@@H]4CO[C@@H](c5ccc(Cl)cn5)C4)no3)c(=O)c12	-1
Cc1cc(=O)nc2ccn(Cc3nc([C@@H]4CO[C@@H](c5ccc(Cl)cc5)C4)no3)c(=O)n12	1
Cc1nc2ncn(C)c2c(=O)n1Cc1nc([C@@H]2CO[C@@H](c3ccc(F)cc3)C2)no1	-1
NC(=O)c1ccc2c(=O)n(Cc3nc([C@@H]4CO[C@@H](c5ccc(Cl)cc5)C4)no3)cnc2n1	-1
Cc1nc2nc(Cl)n(C)c2c(=O)n1Cc1nc([C@@H]2CO[C@@H](c3ccc(Cl)cc3)C2)no1	-1
O=c1c2cccc(=O)n2cnn1Cc1nc([C@@H]2CO[C@@H](c3ccc(Cl)cc3)C2)no1	1
Cn1ncc2nc(N)n(Cc3nc([C@@H]4CO[C@@H](c5ccc(Cl)cc5)C4)no3)c(=O)c21	1
Cn1cnc2ncn(Cc3nc([C@@H]4CO[C@@H](c5ccc(Cl)c(Cl)c5)C4)no3)c(=O)c21	-1
Cc1cnn2ncn(Cc3nc([C@@H]4CO[C@@H](c5ccc6ncsc6c5)C4)no3)c(=O)c12	-1
Cn1cnc2ncn(Cc3nc([C@@H]4CO[C@@H](c5ccc(Cl)c(F)c5)C4)no3)c(=O)c21	1
Cc1c(=O)ncn2cnn(Cc3nc([C@@H]4CO[C@@H](c5ccc(Cl)cc5)C4)no3)c(=O)c12	-1
Cn1c(=O)[nH]c2ncn(Cc3nc([C@@H]4CO[C@@H](c5ccc(Cl)cc5)C4)no3)c(=O)c21	-1
Cc1ncn2nc(N)n(Cc3nc([C@@H]4CO[C@@H](c5ccc(F)cc5)C4)no3)c(=O)c12	-1
O=c1c2ccnnc2ncn1Cc1nc([C@@H]2CO[C@@H](c3ccc(F)cc3)C2)no1	-1
Cn1cnc2[nH]c(=O)n(Cc3nc([C@@H]4CO[C@@H](c5ccc(Cl)cc5)C4)no3)c(=O)c21	-1
Cc1nc2ncn(C)c2c(=O)n1Cc1nc([C@@H]2CO[C@@H](c3ccc(Cl)cc3)C2)no1	1
Cn1c(N)nc2ncn(Cc3nc([C@@H]4CO[C@@H](c5ccc(F)cc5)C4)no3)c(=O)c21	-1

----------
Listed next: entries and their corresponding pIC50.
# experimental target: human TRPA1 channel (Homo sapiens (Human), UniProt O75762)
# assay overview: hTRPA1 CHO Ca2+ FLIPR Tetra assay: block of cinnamaldehyde induced calcium influx
# Type: cell-based
# setup conditions: hTRPA1 IC50 90 min, CHO cells expressing TRPA1; 90 minutes incubation with compound before cinnamaldehyde (about EC80); Hill coefficient fixed to 1.5
pIC50: −log10 of the molar value.

compound	pIC50
Nc1nccc2c(=O)n(Cc3nc([C@@H]4CO[C@@H](c5ccc(Cl)cc5)C4)no3)cnc12 (racemic)	7.24
Nc1nc2ncsc2c(=O)n1Cc1nc([C@@H]2CO[C@@H](c3ccc(Cl)cc3)C2)no1 (racemic)	8.85
O=c1c2cccc(=O)n2ccn1Cc1nc([C@@H]2CO[C@@H](c3ccc(Cl)cc3)C2)no1 (racemic)	8.40
Cc1nc(N2CCN(C)CC2)n2ncn(Cc3nc([C@@H]4CO[C@@H](c5ccc(Cl)cc5)C4)no3)c(=O)c12 (racemic)	6.77
Cc1nc(C)n2ncn(Cc3nc([C@@H]4CO[C@@H](c5ccc(Cl)cc5)C4)no3)c(=O)c12 (racemic)	7.35
Cn1cncc1C(=O)NCc1nc([C@H]2CO[C@H](c3ccc(Cl)cc3)C2)no1 (racemic)	7.64
Cc1cccc2nn(Cc3nc([C@@H]4CO[C@@H](c5ccc(Cl)cc5)C4)no3)c(=O)n12 (racemic)	6.85
Cc1nc2nc(N)n(Cc3nc([C@@H]4CO[C@@H](c5ccc(Cl)cc5)C4)no3)c(=O)c2n1C (racemic)	8.21
O=c1c2cccc(=O)n2ccn1Cc1nc([C@@H]2CO[C@@H](c3ccc(F)cc3)C2)no1 (racemic)	7.92
Cn1cnc2ncn(Cc3nc([C@@H]4CO[C@@H](c5cc(F)c(Cl)c(F)c5)C4)no3)c(=O)c21	7.89
[2H]c1nc2nc(C)n(Cc3nc([C@@H]4CO[C@@H](c5ccc(Cl)cc5)C4)no3)c(=O)c2n1C	8.41
Cc1nc(Br)n2ncn(Cc3nc([C@@H]4CO[C@@H](c5ccc(F)cc5)C4)no3)c(=O)c12 (racemic)	7.48
Cc1nc(N2CCOCC2)n2ncn(Cc3nc([C@@H]4CO[C@@H](c5ccc(Cl)cc5)C4)no3)c(=O)c12 (racemic)	7.02
Cc1nc(N2CCNCC2)n2ncn(Cc3nc([C@@H]4CO[C@@H](c5ccc(Cl)cc5)C4)no3)c(=O)c12 (racemic)	6.48

----------
# experimental target: UniProtKB O75762
# assay overview: hTRPA1 CHO Ca2+ FLIPR Tetra assay: block of cinnamaldehyde induced calcium influx
# Type: cell-based
# setup conditions: read-out: hTRPA1 IC50 90 min; CHO cells expressing TRPA1; 90 minutes incubation with compound before cinnamaldehyde (about EC80); Hill coefficient fixed to 1.5
pIC50: −log10 of the molar value.
measured quantity: pIC50

compound string	experimental target	recorded measurement
O=c1c2cccnc2ncn1Cc1nc([C@@H]2CO[C@@H](c3ccc(F)cc3)C2)no1	UniProtKB O75762	7.09
Cn1cnc2nnn(Cc3nc([C@@H]4CO[C@@H](c5ccc(Cl)cc5)C4)no3)c(=O)c21	UniProtKB O75762	7.96
Cn1cnc2ncn(Cc3nc([C@@H]4CO[C@@H](c5ccc6ncsc6c5)C4)no3)c(=O)c21	UniProtKB O75762	7.06
Cn1cnc2ccn(Cc3nc([C@@H]4CO[C@@H](c5ccc(F)cc5)C4)no3)c(=O)c21	UniProtKB O75762	8.72
Cc1ncn2ncn(Cc3nc([C@@H]4CO[C@@H](c5ccc(Cl)cc5)C4)no3)c(=O)c12	UniProtKB O75762	7.82
Cn1cnc2ncn(Cc3nc([C@@H]4CO[C@@H](c5ccc(Cl)cc5)C4)no3)c2c1=O	UniProtKB O75762	7.92
Cc1cncc2ncn(Cc3nc([C@@H]4CO[C@@H](c5ccc(Cl)cc5)C4)no3)c(=O)c12	UniProtKB O75762	8.89
Cn1cnc2ncn(Cc3nc([C@@H]4CO[C@@H](c5ccc(C6CC6)cc5)C4)no3)c(=O)c21	UniProtKB O75762	7.57
Cn1cnc2ncn(Cc3nc([C@@H]4CO[C@@H](c5ccc(F)c(Cl)c5)C4)no3)c(=O)c21	UniProtKB O75762	8.44
Cc1nc(NC2CNC2)n2ncn(Cc3nc([C@@H]4CO[C@@H](c5ccc(Cl)cc5)C4)no3)c(=O)c12	UniProtKB O75762	7.04
Cn1c(C(F)F)nc2ncn(Cc3nc([C@@H]4CO[C@@H](c5ccc(Cl)cc5)C4)no3)c(=O)c21	UniProtKB O75762	7.96
Cn1cnc2ncn(Cc3nc([C@@H]4CO[C@@H](c5cc(F)cc(F)c5)C4)no3)c(=O)c21	UniProtKB O75762	7.55
Cn1cnc2ncn(Cc3nc([C@@H]4CO[C@@H](c5ccc(Cl)cc5)C4)no3)c(=S)c21	UniProtKB O75762	8.52
Nc1nc2cccnc2n1Cc1nc([C@@H]2CO[C@@H](c3ccc(Cl)cc3)C2)no1	UniProtKB O75762	8.12
Nc1nc2nccnc2n1Cc1nc([C@@H]2CO[C@@H](c3ccc(Cl)cc3)C2)no1	UniProtKB O75762	8.42
Cn1cnc2ncn(Cc3nc([C@@H]4CO[C@@H](c5cc(F)c(F)c(F)c5)C4)no3)c(=O)c21	UniProtKB O75762	7.96

The values you see were collected from patent US10710994B2.
